System: IGROV1 ovarian
Test: NCI tumour cell line growth inhibition, 48 h
recorded-metric: TGI

Challenge: Consider the compound shown here: N#CCC1COc2ccccc2O1 (stereo not drawn) What is its recorded TGI?
Response given: > 10 µM

Challenge: Consider the compound shown here: O=C(CCCn1cnc([N+](=O)[O-])n1)NCCn1ccnc1[N+](=O)[O-] What is its recorded TGI?
Response given: > 100 µM

Challenge: Consider the compound shown here: N#Cc1c(-c2nc3ccccc3s2)c(=O)oc2cc(O)ccc12 What is its recorded TGI?
Response given: > 100 µM

Challenge: Consider the compound shown here: COc1ccc2c(c1)OC(c1cccnc1)C(c1ccccc1)C2=O (stereo not drawn) What is its recorded TGI?
Response given: > 100 µM

Challenge: Consider the compound shown here: O=c1[nH]nc(Cc2ccccc2)n1/N=C/c1c[nH]c2ccccc12 What is its recorded TGI?
Response given: > 100 µM

Challenge: Consider the compound shown here: COc1ccc(N(C(=O)Nc2ccc(Cl)c(Cl)c2)c2ccccc2)cc1 What is its recorded TGI?
Response given: > 10 µM

Challenge: Consider the compound shown here: CCOC(=O)c1ccc(NC(=O)N2CC(C)OC(C)C2)cc1 (stereo not drawn) What is its recorded TGI?
Response given: > 100 µM

Challenge: Consider the compound shown here: CCOC(=O)/C(O)=C1\C(=O)N(C)C(=O)C1c1ccc(OC)c(OC)c1 (stereo not drawn) What is its recorded TGI?
Response given: > 100 µM

Challenge: Consider the compound shown here: N#CCC(=O)Nc1cccc(C(F)(F)F)c1 What is its recorded TGI?
Response given: > 100 µM

Challenge: Consider the compound shown here: C=CCn1c2c(c3ccccc3c1=O)C(=O)c1ccccc1-2 What is its recorded TGI?
Response given: > 100 µM

Challenge: Consider the compound shown here: CC(C)Oc1c(-c2c(OC(C)C)c(=O)c2=O)c(=O)c1=O What is its recorded TGI?
Response given: > 51.5 µM

Challenge: Consider the compound shown here: CC(=O)Nc1ccc2c(c1)c(C1=C(c3cn(C)c4ccccc34)C(=O)NC1=O)cn2C What is its recorded TGI?
Response given: > 25 µM

Challenge: Consider the compound shown here: Cc1ccc(F)cc1NC(=O)O/N=C(\Cl)C(C)C What is its recorded TGI?
Response given: 33.6 µM

Challenge: Consider the compound shown here: CCN(CC)CCOc1nc2ccc(OC)cc2c2c1-c1ccc(OC)cc1C2=O What is its recorded TGI?
Response given: 1.89 µM

Challenge: Consider the compound shown here: O=[N+]([O-])C1C(c2ccccc2)C12c1ccccc1-c1ccccc12 (stereo not drawn) What is its recorded TGI?
Response given: 30.1 µM

Challenge: Consider the compound shown here: S=C1c2ccccc2NC(=NC2CCCC2)C2CSCN12 (stereo not drawn) What is its recorded TGI?
Response given: > 100 µM

Challenge: Consider the compound shown here: Cc1cc2c(c(C#N)c1C)NC(=O)CCC2=O What is its recorded TGI?
Response given: > 100 µM

Challenge: Consider the compound shown here: O=C(CNc1nncs1)NO What is its recorded TGI?
Response given: > 100 µM

Challenge: Consider the compound shown here: Cn1c(=O)nc2n(-c3ccc(Cl)cc3)c3ccc(Cl)cc3nc-2c1=O What is its recorded TGI?
Response given: 51.1 µM

Challenge: Consider the compound shown here: Cc1ccc(C(=O)OC[C@H]2CC[C@@H](n3cc(N(C)C4CCCCC4)c(=O)[nH]c3=O)O2)cc1 What is its recorded TGI?
Response given: > 100 µM

Challenge: Consider the compound shown here: Cc1c(-c2c(C)c3ccccc3n2S(=O)(=O)c2ccccc2)n(S(=O)(=O)c2ccccc2)c2ccccc12 What is its recorded TGI?
Response given: > 100 µM

Challenge: Consider the compound shown here: c1ccc2c(-c3cnc(-c4c[nH]c5ccccc45)cn3)c[nH]c2c1 What is its recorded TGI?
Response given: > 100 µM

Challenge: Consider the compound shown here: CN1CCN(CN2C(=O)C3C4C=CC(C3C2=O)C2C3C(=O)N(CN5CCN(C)CC5)C(=O)C3C42)CC1 (stereo not drawn) What is its recorded TGI?
Response given: > 100 µM

Challenge: Consider the compound shown here: COc1ccc2nc(N/N=C(\C)c3ccccn3)cc(C)c2c1 What is its recorded TGI?
Response given: 1.05 µM

Challenge: Consider the compound shown here: COc1nc(N(C)O)nc(N(C)O)n1 What is its recorded TGI?
Response given: > 100 µM

Challenge: Consider the compound shown here: CCOC(=O)C(=O)Nc1nc2c(s1)C(=O)c1ccccc1C2=O What is its recorded TGI?
Response given: 37.6 µM

Challenge: Consider the compound shown here: COc1ccc(-c2nn3ncccc3c2-c2ccnc(Nc3ccc(Cl)c(C(F)(F)F)c3)n2)cc1 What is its recorded TGI?
Response given: > 25 µM

Challenge: Consider the compound shown here: Cc1cnc2c(C)ccc([N+](=O)[O-])c2c1NCCCN(C)C What is its recorded TGI?
Response given: > 100 µM

Challenge: Consider the compound shown here: O=C(Nc1sccc1S(=O)(=O)c1ccccc1)c1cccnc1 What is its recorded TGI?
Response given: > 94.2 µM

Challenge: Consider the compound shown here: N=C(N)SCCON1C(=O)c2ccccc2C1=O What is its recorded TGI?
Response given: > 100 µM

Challenge: Consider the compound shown here: CC(C)CCCC(C)[C@H]1CCC2[C@@H]3CCC4Cc5nc6c(nc5C[C@]4(C)C3CC[C@@]21C)CC1CC[C@@H]2C(C[C@@H](O)[C@@]3(C)C2C[C@@H]2OC4(CCC(C)CO4)C(C)[C@@H]23)[C@@]1(C)C6 (stereo partly drawn) What is its recorded TGI?
Response given: > 100 µM

Challenge: Consider the compound shown here: Cc1ccc(-[n+]2c3cc(N)c(C)cc3nc3cc(C)c(Nc4ccccc4)cc32)cc1 What is its recorded TGI?
Response given: 1.54 µM

Challenge: Consider the compound shown here: CSc1nc(NC2CCCC2)c2cc[nH]c2n1 What is its recorded TGI?
Response given: > 100 µM
